- assay: gradient 5% acetonitrile 3 min, to 50% in 2 min, to 85% in 15 min, held 3 min, 100 µL/min
- setup.conditions: column: Zorbax Extend-C18 2.1 x 50 mm; eluents: water / acetonitrile, 0.1% formic acid
endpoint.label: RP-LC retention time (s)

compound	assay.result
COc1ccccc1NC(=O)NCCc1nc2cccnc2n1C1CCCC1	728
CCCc1cc(NCCN(C)C)n2ncc(-c3ccccc3)c2n1	660
CCn1cc(C2=CCN(C(=O)Nc3ccc(SC)cc3)CC2)c2cccnc21	910
O=C(Nc1nc(-c2ccccc2)ns1)c1ccccc1Cl	989
CC1(C(=O)NCc2ccc(Cl)cc2)CN(S(C)(=O)=O)CC(=O)N1CCCc1ccccc1 (stereo unspecified)	953
CCc1nc2c(c(=O)n1CC(=O)Nc1cc(C)ccc1OC)CN(Cc1ccccc1)CC2	681
O=C(CC1CCCN(c2cn[nH]c(=O)c2)C1)N1CCC2(CC1)OCCO2 (stereo unspecified)	604
Cc1ccc(-c2cn3cccc(C)c3n2)cc1NS(=O)(=O)c1ccc(Br)cc1	737
Cc1nc(Nc2ccc(F)cn2)sc1C(=O)N1CCc2ccccc2C1	872
Cc1ccc(CNC(=O)c2ccc(CN3CCN(C4CCCC4)C(=O)C3=O)cc2)o1	728
COc1ccc(-c2nc(C3CC(=O)N(c4ccc(Cl)cc4)C3)no2)cc1OC (stereo unspecified)	944
COc1ccc(Cl)cc1NC(=O)N1CCC2(CC1)NC(=O)c1cc(C)ccc1N2C	895
COC(=O)COC(=O)c1cn(-c2ccc(OC)cc2)c(=O)c2ccccc12	924
O=C(N1CCC(c2nc(C3CCOCC3)no2)CC1)C1(c2ccccc2)CC1	817
Cc1ccc(NC(=O)Cn2c(-c3cnccn3)nc(C)c(C)c2=O)cc1Cl	842
Cc1cnc(C(=O)NC2C[C@H]3CC[C@@H](C2)N3C(=O)c2ccoc2)cn1 (stereo partly specified)	601
Cc1ccc2nc(CN(C)Cc3ccc(Cl)cc3)cc(=O)n2c1	627
O=C(CC1CCN(C(=O)c2ccc3oc(C4CC4)nc3c2)CC1)NCC1CCCO1 (stereo unspecified)	640
CCn1cc(-c2ccncc2)cc1C(=O)NCc1ccc(N(C)C)cc1	559
CCc1cc(C(=O)NCc2ccccc2Cl)nc2ccnn12	1000
O=C1COc2cc(S(=O)(=O)N3CCCC3C(=O)NC3CCCCC3)c(Cl)cc2N1 (stereo unspecified)	779
CC1CCN(C(=O)c2csc(-c3ccc(N4CCCC4)nc3)n2)CC1	660
CC1=CC(=O)CC(C)(C)C1(O)/C=C/C(C)=C/C(=O)O (stereo unspecified)	693
CCn1c(=O)c2ccccc2n(Cc2nc(-c3cc(OC)cc(OC)c3)no2)c1=O	1000
O=C(Cn1nc2nc(Nc3ccc(F)cc3)ccn2c1=O)Nc1ccc(F)cc1	751
CCC(=O)Nc1nc(-c2ccc3c(c2)N(C)C(=O)C(C)O3)cs1 (stereo unspecified)	801
COc1ccc(CCNc2ncc(C(=O)O)c(C(C)C)n2)cc1OC	820
Cc1cccc(N2CCN(C(=O)CN3CCN(Cc4ccccc4F)C3=O)CC2)c1	864
Cc1cccc(NC(=O)N2CCC(CC(=O)N3CCCCC3)CC2)c1C	751
Cc1ccc(CN2C(=O)COC[C@H]2C(=O)NCc2ccco2)cc1	737
CC(C)(Cc1c[nH]c2ccc(Cl)cc12)NCCOc1ccccc1OCC1CC1	953
